- protocol: HILIC, Waters Atlantis Premier BEH Z-HILIC, 100 × 2.1 mm, 1.7 µm, 40 °C, 0.15 mL/min, estimated dead time 1.5 min; A: water + 20 mM ammonium carbonate + 5 µM medronic acid; B: 10% water + 90% acetonitrile + 2 mM ammonium carbonate + 0.5 µM medronic acid; gradient (min/%B) 0/100 18/60 18.1/20 21.5/20 22/100 23.5/100 25.5/100
- details: stereoisomer not certain
Mark Condition met only when LC retention time stays strictly below 10 min. Values equal to the cut-off are Condition not met.

Solved entries:
Problem: Threshold test, LC retention time < 10 min: NC(=O)c1ccc[n+](C2OC(COP(=O)(O)OP(=O)(O)OCC3OC(n4cnc5c(N)ncnc54)C(OP(=O)(O)O)C3O)C(O)C2O)c1 (stereo not drawn) [NADP]
Solution: Condition not met

Problem: Threshold test, LC retention time < 10 min: O=C(O)CCC(O)C(=O)O (stereo not drawn) [2-hydroxy glutaric acid]
Solution: Condition met

Problem: Threshold test, LC retention time < 10 min: NC(=O)C1=CN(C2OC(COP(=O)(O)OP(=O)(O)OCC3OC(n4cnc5c(N)ncnc54)C(O)C3O)C(O)C2O)C=CC1 (stereo not drawn) [NADH]
Solution: Condition met

Problem: Threshold test, LC retention time < 10 min: O=C(CO)C(O)C(O)C(O)COP(=O)(O)O (stereo not drawn) [Fructose 6-phosphate]
Solution: Condition not met

Problem: Threshold test, LC retention time < 10 min: CCC(=O)OC(CC(=O)[O-])C[N+](C)(C)C (stereo not drawn) [carnitine-C3]
Solution: Condition met

Please turn your attention to the following entry.
Problem: Threshold test, LC retention time < 10 min: O=P(O)(O)OCC(O)CO (stereo not drawn) [Glycerol-3-phosphate]
Solution: Condition not met
